biological target: Glucocorticoid receptor (Homo sapiens); conditions: hela s3; note: in other assays of this panel Not Active means under 50% inhibition at 10 µM
Sequence (P04150 whole entry): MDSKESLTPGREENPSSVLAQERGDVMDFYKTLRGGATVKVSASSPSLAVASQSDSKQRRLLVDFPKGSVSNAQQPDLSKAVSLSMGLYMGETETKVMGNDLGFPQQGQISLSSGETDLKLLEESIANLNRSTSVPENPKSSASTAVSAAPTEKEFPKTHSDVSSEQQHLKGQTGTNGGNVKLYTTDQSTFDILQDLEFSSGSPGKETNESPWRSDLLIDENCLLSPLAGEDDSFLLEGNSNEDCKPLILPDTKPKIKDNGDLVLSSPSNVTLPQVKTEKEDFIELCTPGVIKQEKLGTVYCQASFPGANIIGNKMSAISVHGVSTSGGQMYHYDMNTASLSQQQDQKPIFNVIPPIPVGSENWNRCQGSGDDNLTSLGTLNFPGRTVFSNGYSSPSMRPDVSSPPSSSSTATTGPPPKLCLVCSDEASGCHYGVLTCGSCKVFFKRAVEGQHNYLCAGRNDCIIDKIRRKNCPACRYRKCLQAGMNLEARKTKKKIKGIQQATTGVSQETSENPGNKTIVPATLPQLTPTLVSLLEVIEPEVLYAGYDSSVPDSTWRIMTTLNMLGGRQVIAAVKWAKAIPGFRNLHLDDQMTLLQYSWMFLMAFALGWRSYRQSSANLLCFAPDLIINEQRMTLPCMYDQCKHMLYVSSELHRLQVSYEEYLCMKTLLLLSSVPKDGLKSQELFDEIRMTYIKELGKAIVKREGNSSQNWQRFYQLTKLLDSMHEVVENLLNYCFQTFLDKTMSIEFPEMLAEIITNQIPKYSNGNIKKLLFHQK
READOUT TYPE: IC50

- MOLECULE: "Cc1cccc(C)c1NC(=O)C1CCCCN1C (stereo not given) [MEPIVACAINE]"
  TEST TARGET: "Glucocorticoid receptor (Homo sapiens)"
  ENDPOINT RESULT: "Not Active"
- MOLECULE: "Nc1cc(-c2ccncc2)c[nH]c1=O"
  TEST TARGET: "Glucocorticoid receptor (Homo sapiens)"
  ENDPOINT RESULT: "Not Active"
- MOLECULE: "NS(=O)(=O)c1cc(C2(O)NC(=O)c3ccccc32)ccc1Cl (stereo not given)"
  TEST TARGET: "Glucocorticoid receptor (Homo sapiens)"
  ENDPOINT RESULT: "Not Active"
- MOLECULE: "COc1ccnc(C[S+]([O-])c2nc3ccc(OC(F)F)cc3[nH]2)c1OC (stereo not given)"
  TEST TARGET: "Glucocorticoid receptor (Homo sapiens)"
  ENDPOINT RESULT: "Not Active"

For this molecule ( C[S+]([O-])c1ccc(-c2nc(-c3ccncc3)c(-c3ccc(F)cc3)[nH]2)cc1 (stereo not given) ), measured IC50 is Not Active

###

test: DRUGMATRIX: Glutamate, NMDA, Agonism radioligand binding (ligand: [3H] CGP-39653); assay type: cell membranes, Rattus norvegicus, Wistar, Cerebral cortex, Membrane; settings: Not Active = under 50% inhibition at 10 µM
READOUT TYPE: Ki

Example molecules with recorded Ki:
- MOLECULE: "CC(=O)OCC(=O)[C@@]1(O)CC[C@H]2[C@@H]3CCC4=CC(=O)CC[C@]4(C)[C@@]3(F)[C@@H](O)C[C@@]21C [FLUDROCORTISONE ACETATE]"
  ENDPOINT RESULT: "Not Active"
- MOLECULE: "C[N+](C)(C)CCOC(=O)CCC(=O)OCC[N+](C)(C)C.[Cl-].[Cl-] [SUCCINYLCHOLINE CHLORIDE]"
  ENDPOINT RESULT: "Not Active"
- MOLECULE: "NC(=O)N1c2ccccc2CC(=O)c2ccccc21 [OXCARBAZEPINE]"
  ENDPOINT RESULT: "Not Active"
- MOLECULE: "C[C@]12CC[C@@H]3c4ccc(O)cc4CC[C@H]3[C@@H]1C[C@@H](O)[C@@H]2O [ESTRIOL]"
  ENDPOINT RESULT: "Not Active"
- MOLECULE: "O=C(c1ccccc1F)N1CCC(Cc2ccccc2)CC1"
  ENDPOINT RESULT: "Not Active"
- MOLECULE: "NC(=O)c1cccc(N)c1 [3-AMINOBENZAMIDE]"
  ENDPOINT RESULT: "Not Active"
- MOLECULE: "Cc1cccc(C)c1NC(=O)C1CCCCN1C (stereo not drawn) [MEPIVACAINE]"
  ENDPOINT RESULT: "Not Active"

// switching to the query molecule
Form: molecule = CCC1=C(C)CN(C(=O)NCCc2ccc(S(=O)(=O)NC(=O)N[C@H]3CC[C@H](C)CC3)cc2)C1=O [GLIMEPIRIDE] ; Ki = Not Active

###

target: Glucocorticoid receptor (Homo sapiens); details: hela s3; note: in other assays of this panel Not Active means under 50% inhibition at 10 µM

- COMPOUND: "C[C@H]1O[C@H](O[C@H]2[C@H](O)[C@@H](O)[C@@H](O[C@H]3[C@H](O)[C@@H](O)C(O)O[C@@H]3CO)O[C@@H]2CO)[C@H](O)[C@@H](O)[C@@H]1N[C@H]1C=C(CO)[C@@H](O)[C@H](O)[C@H]1O (some centres not stated)"
  TEST TARGET: "Glucocorticoid receptor (Homo sapiens)"
  IC50: "Not Active"
- COMPOUND: "COC(=O)[C@H]1[C@H]2C[C@@H]3c4[nH]c5cc(OC)ccc5c4CCN3C[C@H]2C[C@@H](OC(=O)c2cc(OC)c(OC)c(OC)c2)[C@@H]1OC"
  TEST TARGET: "Glucocorticoid receptor (Homo sapiens)"
  IC50: "Not Active"
